Experiment: Rotorod Test for Toxicity
Settings: mouse, in vivo; mice; rotorod at 6 rpm, 10 min; at time of peak effect
measurement-name: TD50 (mg/kg)

compound="CC(C)C1CCSC1=O (stereo not drawn) [α-isopropyl-γ-thiobutyrolactone]" unit_name=mg/kg numeric_result=278

Data credit: patent US4707491A
